Population Tubulin-Different-Phenotype (%) by entry:
- Tested on: HEK-293T
- Assay Comment: Multiplex assay against HEK293T
- Type: toxicity, cell-based
- Run Parameters: human, 24 h, 10 µM, compound concentration 10 uM, replicate 1
State just the number; it will be interpreted in %.

1) CN(C)C(=O)Cn1cc(-c2ccc(-c3nnc4ccccn34)cc2)cn1: 27
2) Cc1cc(NC(=O)NCCN2CCC(O)(Cc3ccccc3)CC2)c2ccccc2n1 [PALOSURAN]: 32
3) Cc1c(Cc2ccc3ccccc3n2)c2cc(F)ccc2n1CC(=O)O [TIMAPIPRANT]: 28
4) COC(c1ccccc1)(c1ccccc1)[C@H](Oc1nc(C)cc(C)n1)C(=O)O [AMBRISENTAN]: 18
5) S=C(NCCCc1c[nH]cn1)NCCCN(Cc1ccc(Cl)c(Cl)c1)c1ccc(Br)cn1: 78

Request: Record request: Population Tubulin-Different-Phenotype (%) value, item "N[C@](CC1c2ccccc2Oc2ccccc21)(C(=O)O)[C@H]1C[C@@H]1C(=O)O"
Result: 17

Request: Record request: Population Tubulin-Different-Phenotype (%) value, item "OCCCNc1cc(-c2ccnc(Nc3cccc(Cl)c3)n2)ccn1"
Result: 88

Request: Could you tell me which Population Tubulin-Different-Phenotype (%) is on file for Cc1cc(-c2ccc3c(c2)CC[C@H]3N2CC3(CCN(C(=O)Cc4cn5cc(C)sc5n4)CC3)C2)ncn1 [PF-5190457] ?
Result: 30

---

- Test system: Fibroblast
- Assay Comment: Multiplex assay against human fibroblast
- Type: toxicity, cell-based
- Run Parameters: 24 h, 10 µM, compound concentration 10 uM, replicate 1
Population Mitochondria Different-Phenotype (%) values, listed per item
Express the result in % but write the number alone.

1. Nc1nc(-c2ccco2)c2cnn(Cc3ccccc3F)c2n1: 8

Request: Requested field: Population Mitochondria Different-Phenotype (%). Item: "Cc1cc(NC(=O)NCCN2CCC(O)(Cc3ccccc3)CC2)c2ccccc2n1"
Result: 8

Request: What does the record list as Population Mitochondria Different-Phenotype (%) for "OCCCNc1cc(-c2ccnc(Nc3cccc(Cl)c3)n2)ccn1" ?
Result: 46

Request: Name the reported Population Mitochondria Different-Phenotype (%) value associated with the compound CN1CCN2c3ccccc3Cc3ccccc3C2C1.Cl (stereo not given) [MIANSERIN HYDROCHLORIDE]
Result: 1

Request: # get_value(readout='Population Mitochondria Different-Phenotype (%)', item= "COC(c1ccccc1)(c1ccccc1)[C@H](Oc1nc(C)cc(C)n1)C(=O)O" )
Result: 11

---

- Tested on: U2OS
- Assay Comment: Multiplex assay against U2OS
- Type: toxicity, cell-based
- Run Parameters: human, 24 h, 10 µM, compound concentration 10 uM, replicate 1
Label scheme for Population Tubulin-Different-Phenotype (%): lower than 3% is false, 3% and above is true.

1. Nc1nc(-c2ccco2)c2cnn(Cc3ccccc3F)c2n1: true
2. O=c1nc2[nH]c3ccccc3nc-2c(=O)[nH]1: false
3. Cl.Cl.OCCOCCN1CCN(C(c2ccccc2)c2ccc(Cl)cc2)CC1 (stereo not given) [HYDROXYZINE HYDROCHLORIDE]: true

Request: Would you say "Cc1sc2c(c1C)C(c1ccc(Cl)cc1)=N[C@H](CC(=O)OC(C)(C)C)c1nnc(C)n1-2" shows Population Tubulin-Different-Phenotype (%) at minimum 3%?
Result: true

Request: Can "COc1c(Nc2ccc(S(C)(=O)=O)nc2C)ncnc1OC1CCN(C(=O)OC(C)C)CC1" be said to have Population Tubulin-Different-Phenotype (%) at or above 3%?
Result: true

Request: Is the recorded value of Population Tubulin-Different-Phenotype (%) equal to or greater than 3% for this molecule? "CC(C)(O)C(=O)N1CCN(c2ccc(C(F)(F)F)c(C3=C(c4c[nH]c5ccccc45)C(=O)NC3=O)c2)CC1"
Result: true

Request: Reported Population Tubulin-Different-Phenotype (%) reaches at least 3% for COCCCN1CCC(NC(=O)c2cc(Cl)c(N)c3c2OCC3)CC1 [PRUCALOPRIDE] ?
Result: true

Request: Tell me whether Population Tubulin-Different-Phenotype (%) is at least 3% here: "Cc1cc(O)c(-c2ccc([C@@H](C)CN(C)C)cc2)c2c1[nH]c(=O)c1sccc12"
Result: true

Data provenance: ChEMBL document CHEMBL5058577
